- System: Pseudomonas aeruginosa
- TEST METHOD NOTES: Antibacterial activity against Pseudomonas aeruginosa PAO1 by serial dilution method
- Format: functional
METRIC: MIC (µg/mL)

Some molecules with recorded MIC:
Which MIC is listed for `COc1ccc2[nH]cc(Cc3ccccc3C#N)c2c1` ?
6

Here is the next molecule: `Cc1cccc(C#N)c1Cc1c[nH]c2ccccc12`
96

P = N#Cc1cc(F)ccc1Cc1c[nH]c2ccccc12
Q = N#Cc1cccc(Cl)c1Cc1c[nH]c2ccccc12
R = N#Cc1ccccc1Cc1c[nH]c2ccccc12
S = N#Cc1ccc(F)cc1Cc1c[nH]c2ccccc12
# rank_down: sort by MIC, max first To answer, write out the labels according to the requested order.
R, P, Q, S
(R: 96 µg/mL, P: 48 µg/mL, Q: 24 µg/mL, S: 12 µg/mL)

---

- TEST METHOD NOTES: Inhibition of quorum sensing system in Chromobacterium violaceum CV026
The source made the active and inactive calls. The calls are words filed in the database; no cut-off is given here.
METRIC: inhibition

Quick one: inhibition of `Cc1ccc2[nH]cc(Cc3ccccc3C#N)c2c1` ?
Active

Same again, this time with CCOC(=O)C(C#N)c1c[nH]c2ccccc12 (configuration not stated)
Active
